For each record, write down the corresponding IC50.
- ASSAY TARGET: P2X purinoceptor 7 (Homo sapiens, UniProt Q99572)
- Sequence (Q99572 whole entry): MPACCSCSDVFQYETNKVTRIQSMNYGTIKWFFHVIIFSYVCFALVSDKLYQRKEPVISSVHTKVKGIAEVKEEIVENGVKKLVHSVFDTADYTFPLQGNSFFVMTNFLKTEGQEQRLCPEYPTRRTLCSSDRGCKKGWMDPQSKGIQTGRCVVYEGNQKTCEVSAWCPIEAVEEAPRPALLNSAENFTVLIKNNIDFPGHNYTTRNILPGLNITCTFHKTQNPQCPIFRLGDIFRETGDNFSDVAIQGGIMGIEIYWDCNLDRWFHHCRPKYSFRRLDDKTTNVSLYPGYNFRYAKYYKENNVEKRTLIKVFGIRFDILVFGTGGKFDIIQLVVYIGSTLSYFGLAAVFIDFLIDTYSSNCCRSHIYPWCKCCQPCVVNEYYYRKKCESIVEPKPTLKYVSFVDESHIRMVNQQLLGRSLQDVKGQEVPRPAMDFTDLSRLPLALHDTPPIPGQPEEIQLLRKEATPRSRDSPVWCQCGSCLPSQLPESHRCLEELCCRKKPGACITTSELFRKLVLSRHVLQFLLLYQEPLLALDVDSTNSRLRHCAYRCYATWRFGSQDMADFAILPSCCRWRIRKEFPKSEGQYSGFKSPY
- METHOD: […] activity at human P2X7R expressing HEK293 cells assessed as reduction in intracellular Ca2+ influx pretreated with Fluo-4 for 1 hr followed by compound addition and further incubated for 30 mins in presence of ATP by multimode plate reader analysis
- Assay type: cell-based

Here are 7 compounds. What values of IC50 were reported for them?
1. O=P(O)(O)OP(=O)(O)OP(=O)(O)OC[C@H]1O[C@@H](n2cnc3c(S)ncnc32)[C@H](O)[C@@H]1O
2. O=P(O)(O)OP(=O)(O)OP(=O)(O)OC[C@H]1O[C@@H](n2cnc3c(Nc4ccccc4)ncnc32)[C@H](O)[C@@H]1O
3. O=P(O)(O)OP(=O)(O)OP(=O)(O)OC[C@H]1O[C@@H](n2cnc3c(NCc4ccccc4)ncnc32)[C@H](O)[C@@H]1O
4. CCCCNc1ncnc2c1ncn2[C@@H]1O[C@H](COP(=O)(O)OP(=O)(O)OP(=O)(O)O)[C@@H](O)[C@H]1O
5. Nc1ncnc2c1ncn2[C@@H]1O[C@H](COP(=O)(O)OP(=O)(O)OP(=O)(O)O)[C@@H](O)[C@@H]1O
6. O=P(O)(O)OP(=O)(O)OP(=O)(O)OC[C@H]1O[C@@H](n2cnc3c2ncn2ccnc32)[C@H](O)[C@@H]1O
7. CO[C@@H]1[C@H](O)[C@@H](COP(=O)(O)OP(=O)(O)OP(=O)(O)O)O[C@H]1n1cnc2c(N)ncnc21

Response:
1. > 100 µM
2. > 100 µM
3. > 100 µM
4. > 100 µM
5. > 100 µM
6. > 100 µM
7. > 100 µM

Would you mind giving IC50 for every compound in the list below?
1. CNc1ncnc2c1ncn2[C@@H]1O[C@H](COP(=O)(O)OP(=O)(O)OP(=O)(O)O)[C@@H](O)[C@H]1O
2. Nc1ncnc2c1ncn2[C@@H]1O[C@H](COP(=O)(O)OP(=O)(O)OP(=O)(O)O)[C@@H](O)[C@H]1N
3. [N-]=[N+]=Nc1nc2c(N)ncnc2n1[C@@H]1O[C@H](COP(=O)(O)OP(=O)(O)OP(=O)(O)O)[C@@H](O)[C@H]1O

Response:
1: > 100 µM; 2: > 100 µM; 3: > 100 µM

Count: 4. Required value per item: IC50.
1. Nc1ncnc2c1ncn2[C@@H]1O[C@H](COP(=O)(O)OP(=O)(O)OP(=O)(O)O)[C@@H](O)[C@H]1F
2. COc1ccc(C(=O)O[C@@H]2[C@H](OC(=O)c3ccc(OC)cc3)[C@@H](COP(=O)(O)OP(=O)(O)OP(=O)(O)O)O[C@H]2n2cnc3c(N)ncnc32)cc1
3. O=P(O)(O)OP(=O)(O)OP(=O)(O)OC[C@H]1O[C@@H](n2cnc3c(Cl)ncnc32)[C@H](O)[C@@H]1O
4. O=c1[nH]c2cncnc2n1[C@@H]1O[C@H](COP(=O)(O)OP(=O)(O)OP(=O)(O)O)[C@@H](O)[C@H]1O

Response:
> 100 µM
> 100 µM
> 100 µM
> 100 µM

====

Please provide measured IC50 for the entries that follow.
- ASSAY TARGET: P2X purinoceptor 2 (Homo sapiens, UniProt Q9UBL9)
- Sequence (Q9UBL9 whole entry): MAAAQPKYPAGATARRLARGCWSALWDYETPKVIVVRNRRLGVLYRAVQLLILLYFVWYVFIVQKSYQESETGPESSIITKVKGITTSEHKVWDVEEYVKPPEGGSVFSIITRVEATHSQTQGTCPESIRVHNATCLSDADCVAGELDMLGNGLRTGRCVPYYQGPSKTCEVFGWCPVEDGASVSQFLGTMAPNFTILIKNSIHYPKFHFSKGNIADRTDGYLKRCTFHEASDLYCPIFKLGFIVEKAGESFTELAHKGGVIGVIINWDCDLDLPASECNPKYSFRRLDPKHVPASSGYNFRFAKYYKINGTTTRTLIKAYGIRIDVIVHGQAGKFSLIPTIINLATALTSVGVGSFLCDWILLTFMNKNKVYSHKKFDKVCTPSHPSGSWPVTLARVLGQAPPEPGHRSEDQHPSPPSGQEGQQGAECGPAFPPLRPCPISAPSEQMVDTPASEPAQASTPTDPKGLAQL
- METHOD: […] activity at human P2X2R expressing CHO cells assessed as reduction in intracellular Ca2+ influx pretreated with Fluo-4 for 1 hr followed by compound addition and further incubated for 30 mins in presence of ATP by multimode plate reader analysis
- Assay type: cell-based
Numbers only, in µM.

SMILES STR	REPORTED
Nc1ncnc2c1ncn2[C@@H]1O[C@H](COP(=O)(O)OP(=O)(O)OP(=O)(O)O)[C@@H](O)[C@H]1F	5.62

Query: Need IC50, item "O=P(O)(O)OP(=O)(O)OP(=O)(O)OC[C@H]1O[C@@H](n2cnc3c2ncn2ccnc32)[C@H](O)[C@@H]1O"
Response: 0.417

====

- ASSAY TARGET: P2X purinoceptor 4 (Homo sapiens, UniProt Q99571)
- Sequence (Q99571 whole entry): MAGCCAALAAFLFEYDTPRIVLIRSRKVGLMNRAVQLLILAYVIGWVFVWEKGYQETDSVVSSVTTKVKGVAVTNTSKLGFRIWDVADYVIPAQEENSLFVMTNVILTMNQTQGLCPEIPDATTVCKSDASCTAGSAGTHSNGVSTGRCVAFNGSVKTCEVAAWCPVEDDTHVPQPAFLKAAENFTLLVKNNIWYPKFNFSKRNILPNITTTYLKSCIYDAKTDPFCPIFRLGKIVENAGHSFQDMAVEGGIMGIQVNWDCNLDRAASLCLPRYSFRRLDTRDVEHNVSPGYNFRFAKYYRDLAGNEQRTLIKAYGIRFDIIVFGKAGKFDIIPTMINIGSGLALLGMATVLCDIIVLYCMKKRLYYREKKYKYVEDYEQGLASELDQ
- METHOD: Antagonist activity at human P2X4R expressing HEK293 cells assessed as reduction in intracellular Ca2+ influx pretreated with Fluo-4 for 1 hr followed by compound addition and further incubated for 30 mins in presence of ATP by multimode plate reader analysis
- Type: cell-based
pIC50: −log10 of the molar value.
MEASURED ATTRIBUTE: pIC50

SMILES STR	ASSAY TARGET	pIC50
COc1ccc(C(=O)O[C@@H]2[C@H](OC(=O)c3ccc(OC)cc3)[C@@H](COP(=O)(O)OP(=O)(O)OP(=O)(O)O)O[C@H]2n2cnc3c(N)ncnc32)cc1	P2X purinoceptor 4 (Homo sapiens, UniProt Q99571)	< 4.00
Nc1ncnc2c1ncn2[C@@H]1O[C@H](COP(=O)(O)OP(=O)(O)OP(=O)(O)O)[C@@H](OC(=O)c2ccccc2)[C@H]1OC(=O)c1ccccc1	P2X purinoceptor 4 (Homo sapiens, UniProt Q99571)	< 4.00

Query: Item "Nc1ncnc2c1ncn2[C@@H]1O[C@H](COP(=O)(O)OP(=O)(O)OP(=O)(O)O)[C@@H](OC(=O)c2cccc3ccccc23)[C@H]1OC(=O)c1cccc2ccccc12" with P2X purinoceptor 4 (Homo sapiens, UniProt Q99571) - pIC50?
Response: 5.20

====

Kindly state pIC50 for each of the entries shown.
- ASSAY TARGET: P2X purinoceptor 2 (Homo sapiens, UniProt Q9UBL9)
- METHOD: […] activity at human P2X2R expressing CHO cells assessed as reduction in intracellular Ca2+ influx pretreated with Fluo-4 for 1 hr followed by compound addition and further incubated for 30 mins in presence of ATP by multimode plate reader analysis
- Type: cell-based
pIC50: −log10 of the molar value.

SMILES STR	ASSAY TARGET	REPORTED
COc1ccc(C(=O)O[C@@H]2[C@H](OC(=O)c3ccc(OC)cc3)[C@@H](COP(=O)(O)OP(=O)(O)OP(=O)(O)O)O[C@H]2n2cnc3c(N)ncnc32)cc1	P2X purinoceptor 2 (Homo sapiens, UniProt Q9UBL9)	< 4.00

Parameters: items (list). Returns: pIC50 for each item.
1. O=P(O)(O)OP(=O)(O)OP(=O)(O)OC[C@H]1O[C@@H](n2cnc3c(Cl)ncnc32)[C@H](O)[C@@H]1O
2. CO[C@@H]1[C@H](O)[C@@H](COP(=O)(O)OP(=O)(O)OP(=O)(O)O)O[C@H]1n1cnc2c(N)ncnc21

Response:
1: 7.06; 2: < 4.00
